Examples of compounds with documented slope follow.
# measured-target: Alpha-2C adrenergic receptor (Homo sapiens)
# experimental-details: modulators of alpha2C/GIRK thallium flux, primary screen, cell-based, HEK293 alpha2C/GIRK1/2 (AID 624);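 further: slope of fluorescence ratio to pre-addition baseline per second over 15 to 24 s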
# recorded-conditions: thallium flux BTC fluorescence, at 10 µM, actives lie on both sides
Active and inactive are the calls of the source.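 How the source made its calls: active means fluorescence slope after compound addition differing from the mean of all screened samples at 99.7% confidence, in either direction; inactive means the rest.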

>  <compound>
COC(=O)C(O)(CC(=O)c1ccc(OC)cc1)C(F)(F)F (centres undefined)

>  <slope>
0.0048 (inactive)

$$$$
>  <compound>
O=C(CCN1C(=O)COc2ccccc21)NCCN1CCN(c2cccc(Cl)c2)CC1

>  <slope>
0.00502 (inactive)

$$$$
>  <compound>
CCOC(=O)C1=C(C)NC(C)=C(C(=O)OCC)C1C(=O)OC1CCOC1=O (centres undefined)

>  <slope>
0.00602 (inactive)

$$$$
>  <compound>
CC/C(O)=C(/C#N)c1nnc2n1CCCCC2

>  <slope>
0.00604 (inactive)

$$$$
>  <compound>
COc1ccc(C2C(C(=O)NCCN3CCOCC3)c3ccccc3C(=O)N2C2CCCCC2)cc1 (centres undefined)

>  <slope>
0.00399 (inactive)

$$$$
>  <compound>
O=C(NCc1ccccc1)C1CCCN1S(=O)(=O)c1cccc2cccnc12 (centres undefined)

>  <slope>
0.00702 (inactive)

$$$$
>  <compound>
O=C(CSc1nc2ccsc2c(=O)n1NC(=O)c1ccccc1)Nc1nccs1

>  <slope>
0.00492 (inactive)

$$$$
>  <compound>
O=C(COc1ccc2ccccc2c1)N1CCCC1

>  <slope>
0.00518 (inactive)

$$$$
>  <compound>
O=c1c2cc(N3CCOCC3)ccc2[nH]c(=S)n1CCCN1CCCC1

>  <slope>
0.00568 (inactive)

$$$$
>  <compound>
CCOc1ccccc1-n1c(SCC(=O)NC2CCCC2)nnc1-c1ccoc1C

>  <slope>
0.00524 (inactive)

$$$$
>  <compound>
CN(C#N)c1nc(N2CCOCC2)nc(N2CCOCC2)n1

>  <slope>
0.00573 (inactive)

$$$$
>  <compound>
Cc1ccc(-n2nnnc2SCC(=O)Nc2c(C)n(C)n(-c3ccccc3)c2=O)cc1

>  <slope>
0.00453 (inactive)

$$$$
>  <compound>
Cc1nnc(SCc2nc3ccccc3s2)n1-c1ccccc1

>  <slope>
0.005 (inactive)

$$$$
>  <compound>
CCOC(=O)N1CCN(c2c(N3CCc4ccccc4C3)c(=O)c2=O)CC1

>  <slope>
0.00721 (inactive)

$$$$
>  <compound>
COC(=O)Oc1c(Br)c(=O)oc2ccccc12

>  <slope>
0.00521 (inactive)

$$$$
>  <compound>
CCOC(=O)c1ccccc1NC(=O)c1cc2sccc2n1C

>  <slope>
0.00572 (inactive)

$$$$
>  <compound>
COC(=O)Nc1nnc(CCc2ccccc2)s1

>  <slope>
0.00467 (inactive)

$$$$
>  <compound>
O=C(CCN1C(=O)COc2ccccc21)N1CCN(c2ccccn2)CC1

>  <slope>
0.00618 (inactive)

$$$$
>  <compound>
CCC(C)NC(=O)CC1Oc2ccc(C)cc2NC1=O (centres undefined)

>  <slope>
0.00629 (inactive)

$$$$
>  <compound>
O=C(CCCOc1ccccc1)N1CCN(c2ccccn2)CC1

>  <slope>
0.00525 (inactive)

$$$$
>  <compound>
CCOC(=O)N1CCC(NC(=O)CS(=O)(=O)Cc2nc(-c3ccccc3C)oc2C)CC1

>  <slope>
0.00671 (inactive)

$$$$
>  <compound>
COc1ccc(C2=NOC(C(=O)NC3CCCCC3)C2)cc1OC (centres undefined)

>  <slope>
0.00464 (inactive)

$$$$
>  <compound>
CCc1ccc(CN(C)CCc2ccccn2)cc1

>  <slope>
0.00499 (inactive)

$$$$
>  <compound>
Cc1cccc(NC(=O)COc2ccc(Br)cc2)n1

>  <slope>
0.00667 (inactive)

$$$$
